# system: C2GnT (Homo sapiens, UniProt Q02742)
# Construct: Plasmids pAcGP67-C2/4GnT-sol and pAcGP67-C2GnT-sol were co-transfected with; gp67 secretion signal of vector pAcGP67 (own knowledge of the vector); made in house; host or cells: Sf9 cells (baculovirus, culture supernatant)
# Sequence (Q02742 33-428 limits assumed): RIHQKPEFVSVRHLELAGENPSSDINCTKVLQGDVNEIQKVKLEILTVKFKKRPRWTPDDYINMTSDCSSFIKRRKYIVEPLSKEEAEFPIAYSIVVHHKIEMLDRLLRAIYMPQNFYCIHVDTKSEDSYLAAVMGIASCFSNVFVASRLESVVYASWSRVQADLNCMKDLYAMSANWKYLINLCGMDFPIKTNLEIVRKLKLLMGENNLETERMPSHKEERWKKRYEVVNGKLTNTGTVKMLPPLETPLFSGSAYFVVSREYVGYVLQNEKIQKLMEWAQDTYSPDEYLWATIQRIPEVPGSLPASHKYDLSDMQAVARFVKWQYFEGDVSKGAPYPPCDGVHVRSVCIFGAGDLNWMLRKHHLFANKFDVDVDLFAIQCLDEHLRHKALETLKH
# methodSummary: C2GnT GlcNAc-transferase activity assay with acceptor substrates
# Type: biochemical
# conditionInfo: acceptor substrate 2 mM; partially purified media of infected High Five cells; background subtracted
quantityName: Substrate specificity: C2GnT activity, 2 mM

[ask] Returns the measured Substrate specificity: C2GnT activity, 2 mM for the input molecule. Input: CC(=O)N[C@H]1[C@@H](Oc2ccc([N+](=O)[O-])cc2)O[C@H](CO)[C@H](O)[C@@H]1O[C@@H]1O[C@H](CO)[C@H](O)[C@H](O)[C@H]1O
[reply] 16.2 nmol/h/mg

[ask] Returns the measured Substrate specificity: C2GnT activity, 2 mM for the input molecule. Input: CO[C@@H]1O[C@H](CO)[C@H](O)[C@H](O[C@@H]2O[C@H](CO)[C@@H](O)[C@H](O)[C@H]2NC(C)=O)[C@H]1O
[reply] <0.1 nmol/h/mg

[ask] Returns the measured Substrate specificity: C2GnT activity, 2 mM for the input molecule. Input: CC(=O)NC1C(OC2C(O)C(CO)OC(Oc3ccc([N+](=O)[O-])cc3)C2NC(C)=O)OC(CO)C(O)C1O (stereo not shown)
[reply] <0.1 nmol/h/mg

[ask] Returns the measured Substrate specificity: C2GnT activity, 2 mM for the input molecule. Input: CC(=O)N[C@H]1C(O)O[C@H](CO)[C@H](O)[C@@H]1O (stereo partly shown)
[reply] <0.1 nmol/h/mg

[ask] Returns the measured Substrate specificity: C2GnT activity, 2 mM for the input molecule. Input: CC(=O)N[C@H]1[C@H](O[C@H]2[C@@H](O)[C@@H](CO)O[C@@H](O[C@H]3[C@H](O)[C@@H](O)C(O)O[C@@H]3CO)[C@@H]2O)O[C@H](CO)[C@@H](O[C@@H]2O[C@H](CO)[C@H](O)[C@H](O)[C@H]2O)[C@@H]1O (mixture of isomers)
[reply] <0.1 nmol/h/mg

[ask] Returns the measured Substrate specificity: C2GnT activity, 2 mM for the input molecule. Input: CC(=O)N[C@@H]1[C@@H](O[C@@H]2O[C@H](CO)[C@H](O)[C@H](O)[C@H]2O)[C@@H](O)[C@@H](CO)O[C@@H]1O
[reply] 9.6 nmol/h/mg

[ask] Returns the measured Substrate specificity: C2GnT activity, 2 mM for the input molecule. Input: CC(=O)N[C@H]1[C@@H](Oc2ccc([N+](=O)[O-])cc2)O[C@H](CO)[C@H](O)[C@@H]1O
[reply] <0.1 nmol/h/mg

====

# system: C2/4GnT (Homo sapiens)
# Construct: An expression construct designed to encode amino acid residues 31-438 of C2/4GnT was prepared by PCR using P1 DNA; gp67 secretion signal of vector pAcGP67A (own knowledge of the vector); made in house; host or cells: Sf9 cells (culture supernatant, standard assays); High Five cells (partially purified enzyme, kinetics)
# Sequence (O95395 31-438): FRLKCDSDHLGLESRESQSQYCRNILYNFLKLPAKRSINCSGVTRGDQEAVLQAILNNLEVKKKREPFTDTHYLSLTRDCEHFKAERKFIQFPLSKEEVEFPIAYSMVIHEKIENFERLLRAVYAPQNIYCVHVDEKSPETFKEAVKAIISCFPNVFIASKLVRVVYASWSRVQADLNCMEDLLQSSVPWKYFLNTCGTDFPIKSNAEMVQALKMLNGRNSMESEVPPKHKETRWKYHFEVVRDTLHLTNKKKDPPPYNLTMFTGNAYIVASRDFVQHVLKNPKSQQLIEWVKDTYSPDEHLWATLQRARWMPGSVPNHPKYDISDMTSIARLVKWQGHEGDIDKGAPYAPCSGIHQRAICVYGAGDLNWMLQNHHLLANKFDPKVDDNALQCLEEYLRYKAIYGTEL
# methodSummary: C2/4GnT GlcNAc-transferase activity assay with acceptor/donor substrates
# Assay type: biochemical
# conditionInfo: acceptor substrate 2 mM; partially purified media of infected High Five cells; background subtracted
quantityName: Substrate specificity: C2/4GnT activity, 2 mM (nmol/h/mg)
Provide the reading as a plain figure in nmol/h/mg.

[ask] Returns the measured Substrate specificity: C2/4GnT activity, 2 mM for the input molecule. Input: CC(=O)N[C@H]1[C@@H](Oc2ccc([N+](=O)[O-])cc2)O[C@H](CO)[C@H](O)[C@@H]1O[C@@H]1O[C@H](CO)[C@H](O)[C@H](O)[C@H]1O
[reply] 16.1

[ask] Returns the measured Substrate specificity: C2/4GnT activity, 2 mM for the input molecule. Input: CC(=O)N[C@@H]1[C@@H](O[C@@H]2O[C@H](CO)[C@H](O)[C@H](O)[C@H]2O)[C@@H](O)[C@@H](CO)O[C@@H]1O
[reply] 2.8

[ask] Returns the measured Substrate specificity: C2/4GnT activity, 2 mM for the input molecule. Input: CC(=O)NC1C(OC2C(O)C(CO)OC(Oc3ccc([N+](=O)[O-])cc3)C2NC(C)=O)OC(CO)C(O)C1O (stereo not shown)
[reply] 5.2

====

# system: C2/4GnT (Homo sapiens)
# Construct: An expression construct designed to encode amino acid residues 31-438 of C2/4GnT was prepared by PCR using P1 DNA; gp67 secretion signal of vector pAcGP67A (own knowledge of the vector); made in house; host or cells: Sf9 cells (culture supernatant, standard assays); High Five cells (partially purified enzyme, kinetics)
# methodSummary: C2/4GnT GlcNAc-transferase activity assay with acceptor/donor substrates
# Format: biochemical
# conditionInfo: acceptor substrate 2 mM; partially purified media of infected High Five cells; background subtracted
quantityName: Substrate specificity: C2/4GnT activity, 2 mM

[ask] Returns the measured Substrate specificity: C2/4GnT activity, 2 mM for the input compound. Input: CO[C@@H]1O[C@H](CO)[C@H](O)[C@H](O[C@@H]2O[C@H](CO)[C@@H](O)[C@H](O)[C@H]2NC(C)=O)[C@H]1O [β-D-GlcNAc-(1-3)-β-D-Gal-1-Me]
[reply] <0.1 nmol/h/mg

[ask] Returns the measured Substrate specificity: C2/4GnT activity, 2 mM for the input compound. Input: CC(=O)N[C@H]1[C@H](O[C@H]2[C@@H](O)[C@@H](CO)O[C@@H](O[C@H]3[C@H](O)[C@@H](O)C(O)O[C@@H]3CO)[C@@H]2O)O[C@H](CO)[C@@H](O[C@@H]2O[C@H](CO)[C@H](O)[C@H](O)[C@H]2O)[C@@H]1O (mixture of isomers) [lacto-N-neo-tetraose]
[reply] <0.1 nmol/h/mg

[ask] Returns the measured Substrate specificity: C2/4GnT activity, 2 mM for the input compound. Input: CC(=O)N[C@H]1[C@@H](Oc2ccc([N+](=O)[O-])cc2)O[C@H](CO)[C@H](O)[C@@H]1O [α-D-GalNAc-1-p-Nph]
[reply] <0.1 nmol/h/mg

[ask] Returns the measured Substrate specificity: C2/4GnT activity, 2 mM for the input compound. Input: CC(=O)N[C@H]1C(O)O[C@H](CO)[C@H](O)[C@@H]1O (stereo partly drawn) [D-GalNAc]
[reply] <0.1 nmol/h/mg
